# System: K4 kissing-loop RNA reporter;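 further: bound reporter read as fluorescence of individual clusters on recovered sequencing chips by microscopy, with normalized cluster intensities fitted with a binding model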
# ASSAY_COMMENT: apparent KD of K4 kissing-loop reporter; higher = weaker reporter binding
# PARTICULARS: Eterna round: R107; input ligand: FMN 200 uM
apparent KD of K4 kissing-loop reporter by entry:
Entry rule: numbers only, all in nM.

Here's what some known entries look like.
{"RESIDUE_CODES": "AAUGGCGAGUGAUGUUCGCCCACCAAUGAUACCAGUGCCAUCGGACACCCUUGGCAGCAUACGGGCAGUGAUGUUGCUCUUGGAA [Exclusion Theophylline A GF 26]", "SCALE_UNIT": "nM", "VAL": 185}
{"RESIDUE_CODES": "AUGGGUUGUUGAAGGAGCGCCGCCAGUGAUGUUGGGAGUUAGAUACCAGUGAUGUUGGGCCGGCAGGUAGGUCGCGGCGAUUUAU [Exclusion Arginine B GF 19]", "SCALE_UNIT": "nM", "VAL": 347}
{"RESIDUE_CODES": "AGUAUGUAAUAUGGCAUAUUUAGAACUGAAGGAGCGCCGAAUAAGGCAGGUAGGUCGCGGUUUUAUGAGUGAUGUUCUUGUUUAA [KL-SSArg-A24]", "SCALE_UNIT": "nM", "VAL": 156}
{"RESIDUE_CODES": "AGUACAAUGGCGGCCGCCACUCAACGCAGAUCAAAGAUCUGCGUUCACUCAGUGAUGUUGAGUGAGAGGACCGGGCCUUUGUACA [Omei KL Tryp B SS B v5]", "SCALE_UNIT": "nM", "VAL": 221}
{"RESIDUE_CODES": "UGGAGUUGACGAAAAGUCAACUCCUGAGAAGGAGCGCACGAAAGUGCAGGUAGGUCGCUCUACCAGUGAUGUUGGUACUUAAUAA [#OpenEnded 6]", "SCALE_UNIT": "nM", "VAL": 92.1}
{"RESIDUE_CODES": "UUAUCAUCAGCGGCCGCCACUGCAAAUUGGAGUGAUGUUCCAAGCGUGGAUAAUGAAAUCACUAGUAGGACCGGGUUGAUGAAUU [AK 1 Ex Trypt B]", "SCALE_UNIT": "nM", "VAL": 309}

Form field apparent KD of K4 kissing-loop reporter, entry GGUAGCAUGGCGGCCGCCACUACUGACAGCUGUCUGUUCUGGGUACCAGGGAGUGAUGUUCCCGGUAGGACCGGGCCAUGCUACC : 135

Form field apparent KD of K4 kissing-loop reporter, entry GGAUCUUCCAGUGAUGUUGGUUAAUAUAUCAAGGAUAUGACGAAAGUCAGAAGGUGAAAGACUGGACAAAGUCCAGUCGGAUCCA [KL-SSFMN-A19] : 444

Form field apparent KD of K4 kissing-loop reporter, entry UGGGCCGCCUGAGGAUAUAGAGACGAGUGAUGUUCGUGGAUCAGAGCCAGUGAUGUUGGGUUAUUUCUAGAAGGCGGGCGAACUU [Exclusion FMN B GF10] : 116

Form field apparent KD of K4 kissing-loop reporter, entry GUCUGCUGUAUCGAUACCAGAAGUGGGCAGUGAUGUUGUUCGGGUACAUCGCGUCUCGAGUUCCCUUGGCAGCGAUUGUACGAAU [theeternabot_exclusion_KL_Theo_B_12] : 533

Form field apparent KD of K4 kissing-loop reporter, entry GCUAAGGAGUGAUGUUCCAAGUGAUGUUAACGAGGACCGGUACGGCCGCCACUCGAUACGGCCGGAAAGUAAGAUAAACUACAGU [Same State - Tryptophan A (Freestyle 4)] : 77.5

Form field apparent KD of K4 kissing-loop reporter, entry AAUUUAGUGACGGCCGCCACUAGGGUGAUUUAUUUGUUUGAGUGAUGUUUUGAUGUUUGAUUUUGUAGGACCGGGUUAGGUGAUG [dddcmullin] : 354

###

# System: MS2 coat protein
# ASSAY_COMMENT: apparent KD of MS2 coat protein; higher = weaker reporter binding
# PARTICULARS: Eterna round: R107; input ligand: theophylline 20 uM
RESULT_TYPE: apparent KD of MS2 coat protein (nM)
Entry rule: numbers only, all in nM.

Here's what some known entries look like.
{"RESIDUE_CODES": "UGACAUUGCUCAGAUACCAGACAUGAGGAUCACCCAUGUACCAAGAAAACGUACAUAAAUGUCCCUUGGCAGCUGAGCAAUGUCU [TheoBX 10 #MS2Left #Theo2]", "RESULT_TYPE": "apparent KD of MS2 coat protein", "SCALE_UNIT": "nM", "VAL": 535}
{"RESIDUE_CODES": "UGAUCCUGCAGGGAUACCAGCGCCGCUAGAUAACUAUGCACAUGAGGAUCACCCAUGUAACGCCCUUGGCAGCCCAGCUAAAGGG [Same State Theophylline B GF22]", "RESULT_TYPE": "apparent KD of MS2 coat protein", "SCALE_UNIT": "nM", "VAL": 60.1}

# input for lookup
Form field apparent KD of MS2 coat protein, entry GGACUAACCAGAAGGAGCGACACGCAGAAACUGCAAUUUCCUCUACACGAGGAUCACCCGUGUCAGGUAGGUCGCUGGUUAGUCG : 74.8

###

apparent KD of MS2 coat protein by entry:
# Tested on: MS2 coat protein
# ASSAY_COMMENT: apparent KD of MS2 coat protein; designed switch direction (-1 OFF switch, 1 ON switch): 1; higher = weaker reporter binding
# PARTICULARS: Eterna round: R95; input ligand: none

Here's what some known entries look like.
{"RESIDUE_CODES": "AAGAGAGGAAGCGAGGAUAUCGUGGGAGGGACAUGAGGAUCACCCAUGUAGGAUGUUGAGAGGAACGAGAAGGCGCAGGAAAGAA [JR_SS2_Sub074] (puzzle: Same State 2)", "TARGET_OR_SYSTEM": "MS2 coat protein", "VAL": "96.1 nM"}
{"RESIDUE_CODES": "AAAGCACAUGAGGAUCACCCAUGUGGAAAUAACACAGGAUAUCUGACCGAAACUAAGGCGAGAGAAGGGUGACCUA [Engeerbi] (puzzle: Same State 1)", "TARGET_OR_SYSTEM": "MS2 coat protein", "VAL": "78.9 nM"}
{"RESIDUE_CODES": "UCUUGGUUUUUGCUCGUUUUUUGUGUUGAACAUGAGGAUCACCCAUGUAUUGUACGGUCCAGUUUGGUGGUAGUCCG [JMF 71] (puzzle: Sensor for hsa-mir-208a)", "TARGET_OR_SYSTEM": "MS2 coat protein", "VAL": "38 nM"}
{"RESIDUE_CODES": "AGAUAGUGUGGAAAGGAUAUACUGUUGAGGACAUGAGGAUCACCCAUGUGGUAGAGGAGGUAAGGGUAGAAGGUUCGGGAUUGGU [JR_SS@_Sub019] (puzzle: Same State 2)", "TARGET_OR_SYSTEM": "MS2 coat protein", "VAL": "47.1 nM"}
{"RESIDUE_CODES": "AGUCCAGCCUGAGCUGGACAAAAGCAUGUACAUGAGGAUCACCCAUGUCAUGUACAAGCUUUUUGCUCAAAAUAAUA [Mat - hsa-mir-208a - Mod of JL - D33] (puzzle: Sensor for hsa-mir-208a)", "TARGET_OR_SYSTEM": "MS2 coat protein", "VAL": "607 nM"}
{"RESIDUE_CODES": "UGCCAUUGUAUAUUGGUGCAAGCUUUUUGACAUGAGGAUCACCCAUGUACUCGUCUUAUGUGCAGUCCGUAGACUGC [JL-shm-2.23 Brourd mod] (puzzle: Sensor for hsa-mir-208a)", "TARGET_OR_SYSTEM": "MS2 coat protein", "VAL": "22.8 nM"}
{"RESIDUE_CODES": "UGGUUGGAGAGAGAGGAUAUCCAAUUUUCAACAUGAGGAUCACCCAUGUAGAACGUAGGUAAUUGGGAGAAGGCUCAAGAGACAU [salish99_ss2_r3_100] (puzzle: Same State 2)", "TARGET_OR_SYSTEM": "MS2 coat protein", "VAL": "23.5 nM"}
{"RESIDUE_CODES": "AGUCCAGCCUGAGCUGGACAAAAGCAUGUACAUGAGGAUCACCCAUGUCAUGUACAAGCUUUUUGCUCGUCAUAAUA [Mat - hsa-mir-208a - Mod of JL - D28] (puzzle: Sensor for hsa-mir-208a)", "TARGET_OR_SYSTEM": "MS2 coat protein", "VAL": "710 nM"}

Form field apparent KD of MS2 coat protein, entry UUUAGUUGCGGGCAGGAUAUGUGUUAAAAUACAUGAGGAUCACCCAUGUGCGGGUAUAACACCCGACAGAAGGGCCAAUCGCGAC [Laonerce - 2] (puzzle: Same State 2) : 67.9 nM

Form field apparent KD of MS2 coat protein, entry AGUCCAGCGAAAGCUGGACAAAAGCAUGUACAUGAGGAUCACCCAUGUUCAUGUAUAAGCUUUUUGCUCGUCUUAAA [JL mod - D95 - 12] (puzzle: Sensor for hsa-mir-208a) : 15.9 nM

Form field apparent KD of MS2 coat protein, entry GAGUUACUAUCUCAGGAUAUCAUGUCAAAGACAUGAGGAUCACCCAUGUACCAGGAAACUGGUUAUGAGAAGGGAGAUAGUAACG [Mat - Same State 2 - Mod - D52] (puzzle: Same State 2) : 154 nM

Form field apparent KD of MS2 coat protein, entry GUAUAACAUGAGGAUCACCCAUGUCAACAAAGUCGAGGAUAUGGGCAGAGAGGAGAAGAACCAGAAGGCGAAUAUG [Mat - Same State 1 - Mod of UCT - D37] (puzzle: Same State 1) : 122 nM

Form field apparent KD of MS2 coat protein, entry CGUCCGGCCUGUGCUGGACGGAAGCAUGUACAUGAGGAUCACCCAUGUUCAUGUGCAGGCUUUUUGCUCGUCUUGUG [salish99_mir208a_modof_jandersonlee_005] (puzzle: Sensor for hsa-mir-208a) : 117 nM

Form field apparent KD of MS2 coat protein, entry CUGCUACAUGAGGAUCACCCAUGUUGGAGUAAUGCAGGAUAUGUGGGACCAGAAGAUAAAACAGAAGGGCAAGGAG [JR_SS!_Sub007] (puzzle: Same State 1) : 28.8 nM

Form field apparent KD of MS2 coat protein, entry GUGCGGCUGCCACAGGAUAUACGUGGAUCGACAUGAGGAUCACCCAUGUAUAUCCUAAUAAUUGCGUAGAAGGGUGGUCAGCCAG [Iserinqu] (puzzle: Same State 2) : 469 nM

Form field apparent KD of MS2 coat protein, entry GUAAGUUCGAUGCUCGUCUCUCCGUACAAACAUGAGGAUCACCCAUGUGAUCGGGAAGUAGCCCGAUCAGUAUGGCC [Teonveenes] (puzzle: Sensor for hsa-mir-208a) : 38.2 nM

Form field apparent KD of MS2 coat protein, entry GAGGAACAUGAGGAUCACCCAUGUAAAGGGUUUAAAGGAUAUUAUUGGGAGAAAGUAGGGUAAGAAGGUUGAUUGG [JR_SS1_Sub087] (puzzle: Same State 1) : 168 nM

Form field apparent KD of MS2 coat protein, entry CUAUGACAUGAGGAUCACCCAUGUGAUAAUUUCAUAGGAUAUACGGCGCCGUUAAGGGCCGUAGAAGGGUGAUCGA [Veonti] (puzzle: Same State 1) : 22.9 nM

Form field apparent KD of MS2 coat protein, entry AUAAAACAUGAGGAUCACCCAUGUCAACAAAGUCGAGGAUAUGGGCAAAUAAAAUUAGAACCAGAAGGCGAAUAAU [salish99_ss1_r3_020] (puzzle: Same State 1) : 379 nM

Form field apparent KD of MS2 coat protein, entry CGUCCAGCCUGAGCUGGACAAAAGCAUGUACAUGAGGAUCACCCAUGUUCAUGUACAAGCUUUUUGCUCGUCUUACG [salish99_208a_r3_093x] (puzzle: Sensor for hsa-mir-208a) : 617 nM

The origin of these recorded values is the supplement of paper PMC9170038.
